biological target: Histone deacetylase 5 (Homo sapiens, UniProt Q9UQL6); assay: Inhibition of HDAC5 (unknown origin) assessed as release of 7-amino-4-methylcoumarin incubated in room temperature for 15 min measured by Spectra max microtitre plate reader
Sequence (Q9UQL6 whole entry): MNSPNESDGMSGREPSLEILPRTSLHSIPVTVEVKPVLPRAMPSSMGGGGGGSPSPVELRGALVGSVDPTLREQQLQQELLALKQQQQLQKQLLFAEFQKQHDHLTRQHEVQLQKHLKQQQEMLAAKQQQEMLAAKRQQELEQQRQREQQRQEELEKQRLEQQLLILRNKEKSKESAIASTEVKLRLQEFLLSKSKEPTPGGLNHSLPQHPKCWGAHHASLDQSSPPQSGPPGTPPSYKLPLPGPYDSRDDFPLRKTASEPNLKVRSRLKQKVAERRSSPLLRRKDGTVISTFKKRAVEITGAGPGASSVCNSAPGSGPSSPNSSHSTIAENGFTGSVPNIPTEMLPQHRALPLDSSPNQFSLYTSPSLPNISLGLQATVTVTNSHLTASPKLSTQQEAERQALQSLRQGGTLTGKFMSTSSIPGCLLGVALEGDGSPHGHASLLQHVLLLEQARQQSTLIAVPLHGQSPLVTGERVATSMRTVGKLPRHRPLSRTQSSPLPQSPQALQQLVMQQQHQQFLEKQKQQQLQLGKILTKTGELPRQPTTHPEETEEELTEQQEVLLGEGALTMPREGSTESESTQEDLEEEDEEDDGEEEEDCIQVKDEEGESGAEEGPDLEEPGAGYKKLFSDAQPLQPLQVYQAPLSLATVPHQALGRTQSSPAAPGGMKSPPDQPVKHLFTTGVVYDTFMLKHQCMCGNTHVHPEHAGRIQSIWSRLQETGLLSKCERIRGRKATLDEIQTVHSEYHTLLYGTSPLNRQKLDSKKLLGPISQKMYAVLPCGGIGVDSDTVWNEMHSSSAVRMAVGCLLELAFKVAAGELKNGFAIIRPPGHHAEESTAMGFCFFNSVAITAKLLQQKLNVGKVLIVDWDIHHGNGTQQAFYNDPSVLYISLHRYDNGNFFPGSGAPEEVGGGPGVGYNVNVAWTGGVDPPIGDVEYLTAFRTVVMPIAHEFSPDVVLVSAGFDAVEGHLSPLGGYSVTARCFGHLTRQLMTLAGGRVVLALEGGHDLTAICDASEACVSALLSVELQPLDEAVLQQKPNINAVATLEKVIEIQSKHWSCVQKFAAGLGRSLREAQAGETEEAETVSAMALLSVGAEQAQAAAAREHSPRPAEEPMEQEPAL
pIC50: −log10 of the molar value.
OBSERVABLE: pIC50

*Q* State the recorded pIC50 for this entry: "Nc1ccccc1NC(=O)c1ccc(CCn2ncc3c2nc(N)n2nc(-c4ccco4)nc32)cc1"
*A* < 5.00

###

assay: AUC (0 to […]) in ICR mouse at 5 mg/kg, iv up to 24 hrs by LC-MS/MS analysis; type: ADME, organism-based; design: route intravenous, dose 5 mg/kg, time <=24; details: in vivo
OBSERVABLE: AUC(0-t)
Your answer should be a number followed by the unit of measure.

*Q* State the recorded AUC(0-t) for this entry: "Nc1ccccc1NC(=O)c1ccc(CCn2ncc3c2nc(N)n2nc(-c4ccco4)nc32)cc1"
*A* 1460 ng·h/mL

###

experiment: MRT in ICR mouse at 20 mg/kg, ip up to 24 hrs by LC-MS/MS analysis; type: ADME, organism-based; details: in vivo
OBSERVABLE: MRT (h)
State the answer as a number, implicitly in h.

*Q* State the recorded MRT for this entry: "Nc1ccccc1NC(=O)c1ccc(CCn2ncc3c2nc(N)n2nc(-c4ccco4)nc32)cc1"
*A* 2.61

###

log10(Ki) data for Adenosine receptor A2a (Homo sapiens, UniProt P29274) follow.
Quick note: numbers are log10 of Ki, with nM as the unit.

*Q* State the recorded log10(Ki) for this entry: "Nc1ccccc1NC(=O)c1ccc(CCn2ccc3c2nc(N)n2nc(-c4ccco4)nc32)cc1"
*A* -0.06

*Q* Likewise for "Nc1nc(NCCc2ccc(NC(=O)CCCCCCC(=O)NO)cc2)nc2nc(-c3ccco3)nn12" ?
*A* 1.05

*Q* Likewise for "Cc1ccc(-c2nc3c4cnn(CCc5ccc(C(=O)Nc6ccccc6N)cc5)c4nc(N)n3n2)o1" ?
*A* 1.27

*Q* Likewise for "Nc1ccccc1NC(=O)c1ccc(Cn2ncc3c2nc(N)n2nc(-c4ccco4)nc32)cc1" ?
*A* 1.94

*Q* Likewise for "Nc1nc(NCCc2ccc(C(=O)NO)cc2)nc2nc(-c3ccco3)nn12" ?
*A* 0.80

###

assay: AUC (0 to infinity) in ICR mouse at 20 mg/kg, po by LC-MS/MS analysis; format: ADME, organism-based; design: time infinity, route oral, dose 20 mg/kg; details: in vivo
OBSERVABLE: AUC(0-inf) (ng·h/mL)
State the answer as a number, implicitly in ng·h/mL.

*Q* State the recorded AUC(0-inf) for this entry: "N#Cc1cccc(-c2nc3c4cnn(CCc5ccc(C(=O)Nc6ccccc6N)cc5)c4nc(N)n3n2)c1"
*A* 602

*Q* Likewise for "Nc1ccccc1NC(=O)c1ccc(CCn2ncc3c2nc(N)n2nc(-c4ccco4)nc32)cc1" ?
*A* 1810

###

I'd appreciate it if you could supply Cmax values for the items below.
assay: Cmax in ICR mouse at 20 mg/kg, po by LC-MS/MS analysis; format: ADME, organism-based; design: route oral, dose 20 mg/kg; conditions: in vivo
State the answer as a number, implicitly in ng/mL.

*Q* State the recorded Cmax for this entry: "Nc1ccccc1NC(=O)c1ccc(CCn2ncc3c2nc(N)n2nc(-c4ccco4)nc32)cc1"
*A* 1590

*Q* Likewise for "N#Cc1cccc(-c2nc3c4cnn(CCc5ccc(C(=O)Nc6ccccc6N)cc5)c4nc(N)n3n2)c1" ?
*A* 598

###

assay: Cmax in ICR mouse at 5 mg/kg, iv up to 24 hrs by LC-MS/MS analysis; assay type: ADME, organism-based; parameters: route intravenous, dose 5 mg/kg, time <=24; conditions: in vivo
OBSERVABLE: Cmax (ng/mL)
State the answer as a number, implicitly in ng/mL.

*Q* State the recorded Cmax for this entry: "Nc1ccccc1NC(=O)c1ccc(CCn2ncc3c2nc(N)n2nc(-c4ccco4)nc32)cc1"
*A* 3320

###

assay: AUC (0 to t) in ICR mouse at 20 mg/kg, po by LC-MS/MS analysis; format: ADME, organism-based; design: dose 20 mg/kg; details: in vivo
I'd appreciate it if you could supply AUC(0-t) values for the items below.
State the answer as a number, implicitly in ng·h/mL.

*Q* State the recorded AUC(0-t) for this entry: "N#Cc1cccc(-c2nc3c4cnn(CCc5ccc(C(=O)Nc6ccccc6N)cc5)c4nc(N)n3n2)c1"
*A* 588

*Q* Likewise for "Nc1ccccc1NC(=O)c1ccc(CCn2ncc3c2nc(N)n2nc(-c4ccco4)nc32)cc1" ?
*A* 1770

###

molecular target: Histone deacetylase 1 (Homo sapiens, UniProt Q13547)
Sequence (Q13547 whole entry): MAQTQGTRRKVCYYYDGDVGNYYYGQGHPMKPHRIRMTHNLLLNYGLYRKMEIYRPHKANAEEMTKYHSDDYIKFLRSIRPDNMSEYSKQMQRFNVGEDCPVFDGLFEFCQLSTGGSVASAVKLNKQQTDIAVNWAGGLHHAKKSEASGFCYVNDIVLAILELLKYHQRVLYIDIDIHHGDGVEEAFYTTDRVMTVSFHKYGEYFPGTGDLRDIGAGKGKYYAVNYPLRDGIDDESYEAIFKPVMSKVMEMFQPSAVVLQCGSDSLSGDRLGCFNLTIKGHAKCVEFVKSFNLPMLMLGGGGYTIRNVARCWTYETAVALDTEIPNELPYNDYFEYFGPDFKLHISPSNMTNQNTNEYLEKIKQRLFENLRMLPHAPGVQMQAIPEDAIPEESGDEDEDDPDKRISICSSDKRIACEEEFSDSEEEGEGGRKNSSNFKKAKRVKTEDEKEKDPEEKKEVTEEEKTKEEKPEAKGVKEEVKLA
Simple rule here: IC50 less than 50 nM is True, otherwise False.

*Q* Is IC50 of "Nc1cc(F)ccc1NC(=O)c1ccc(CCn2ncc3c2nc(N)n2nc(-c4ccco4)nc32)cc1" strictly below 50 nM?
*A* False

*Q* Likewise for "Nc1nc(NCCc2ccc(C(=O)NO)cc2)nc2nc(-c3ccco3)nn12" ?
*A* False

*Q* Likewise for "Nc1ccccc1NC(=O)c1ccc(CCNc2nc(N)n3nc(-c4ccco4)nc3n2)cc1" ?
*A* False

*Q* Likewise for "Nc1ccccc1NC(=O)c1ccc(CCn2ncc3c2nc(N)n2nc(-c4ccco4)nc32)cc1" ?
*A* False

*Q* Likewise for "Nc1nc(NCCc2ccc(NC(=O)CCCCCCC(=O)NO)cc2)nc2nc(-c3ccco3)nn12" ?
*A* True

*Q* Likewise for "Nc1ccccc1NC(=O)c1ccc(CCn2ccc3c2nc(N)n2nc(-c4ccco4)nc32)cc1" ?
*A* False

*Q* Likewise for "Nc1ccccc1NC(=O)c1ccc(Cn2ncc3c2nc(N)n2nc(-c4ccco4)nc32)cc1" ?
*A* False

*Q* Likewise for "Nc1nc2c(cnn2CCN2Cc3ccc(C(=O)NO)cc3C2)c2nc(-c3ccco3)nn12" ?
*A* False

*Q* Likewise for "Nc1nc(NCc2ccc(C(=O)NO)cc2)nc2nc(-c3ccco3)nn12" ?
*A* True

*Q* Likewise for "Nc1nc2c(cnn2CCCCCCC(=O)NO)c2nc(-c3ccco3)nn12" ?
*A* True

*Q* Likewise for "Nc1nc(NCCCc2ccc(C(=O)NO)cc2)nc2nc(-c3ccco3)nn12" ?
*A* True

*Q* Likewise for "Nc1ccccc1NC(=O)c1ccc(OCCNc2nc(N)n3nc(-c4ccco4)nc3n2)cc1" ?
*A* False

*Q* Likewise for "Nc1nc(NCCCCCCC(=O)NO)nc2nc(-c3ccco3)nn12" ?
*A* True

*Q* Likewise for "CCN(CCc1ccc(C(=O)NO)cc1)c1nc(N)n2nc(-c3ccco3)nc2n1" ?
*A* False

###

experiment: Elimination rate constant in ICR mouse at 5 mg/kg, iv up to 24 hrs by LC-MS/MS analysis; format: ADME, organism-based; details: in vivo
OBSERVABLE: k el at 24 h (s⁻¹)
State the answer as a number, implicitly in s⁻¹.

*Q* State the recorded k el at 24 h for this entry: "Nc1ccccc1NC(=O)c1ccc(CCn2ncc3c2nc(N)n2nc(-c4ccco4)nc32)cc1"
*A* 0.000678

###

biological target: Adenosine receptor A2a (Homo sapiens, UniProt P29274)
Sequence (P29274 whole entry): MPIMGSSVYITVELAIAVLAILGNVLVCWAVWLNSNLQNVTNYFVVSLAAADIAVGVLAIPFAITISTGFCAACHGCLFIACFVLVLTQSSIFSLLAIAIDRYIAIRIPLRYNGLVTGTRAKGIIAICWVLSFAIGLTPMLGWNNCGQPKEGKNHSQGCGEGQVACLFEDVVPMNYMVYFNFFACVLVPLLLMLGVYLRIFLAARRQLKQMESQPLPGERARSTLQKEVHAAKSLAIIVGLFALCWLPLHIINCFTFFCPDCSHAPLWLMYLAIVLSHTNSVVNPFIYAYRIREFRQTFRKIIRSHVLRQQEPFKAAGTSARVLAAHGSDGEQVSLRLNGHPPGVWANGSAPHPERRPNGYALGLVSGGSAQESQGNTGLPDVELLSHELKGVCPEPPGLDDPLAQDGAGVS
pKi: −log10 of the molar value.
Please use true whenever pKi is not below 8, and false whenever it is.

*Q* Could you tell me if the measured pKi of "Nc1nc(NCCCCCCC(=O)NO)nc2nc(-c3ccco3)nn12" reaches 8 or more?
*A* false

*Q* Likewise for "Nc1ccccc1NC(=O)c1ccc(OCCNc2nc(N)n3nc(-c4ccco4)nc3n2)cc1" ?
*A* true

###

I'd appreciate it if you could supply pKi values for the items below.
molecular target: Adenosine receptor A2a (Homo sapiens)
# reply with the number alone; pKi is -log10 of concentration in mol/L

*Q* State the recorded pKi for this entry: "Nc1cc(F)ccc1NC(=O)c1ccc(CCCn2ncc3c2nc(N)n2nc(-c4ccco4)nc32)cc1"
*A* 8.00

*Q* Likewise for "Nc1nc(NCCOc2ccc(C(=O)NO)cc2)nc2nc(-c3ccco3)nn12" ?
*A* 7.99

*Q* Likewise for "Nc1cc(F)ccc1NC(=O)c1ccc(CCNc2nc(N)n3nc(-c4ccco4)nc3n2)cc1" ?
*A* 8.02
